EXPERIMENTAL_TARGET: human CRTH2 receptor (Homo sapiens, UniProt Q9Y5Y4, V204A)
Sequence (Q9Y5Y4 whole entry V204A): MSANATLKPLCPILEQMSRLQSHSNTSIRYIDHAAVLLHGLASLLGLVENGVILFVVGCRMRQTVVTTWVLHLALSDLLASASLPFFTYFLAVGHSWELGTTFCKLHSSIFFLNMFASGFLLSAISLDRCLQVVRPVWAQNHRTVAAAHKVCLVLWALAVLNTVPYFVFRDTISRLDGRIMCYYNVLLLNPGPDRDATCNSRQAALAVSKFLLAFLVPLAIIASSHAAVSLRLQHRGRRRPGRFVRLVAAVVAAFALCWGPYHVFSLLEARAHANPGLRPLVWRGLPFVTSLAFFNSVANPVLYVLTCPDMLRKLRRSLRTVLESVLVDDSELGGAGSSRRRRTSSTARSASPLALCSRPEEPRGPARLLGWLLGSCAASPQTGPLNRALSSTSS
PROTOCOL_SUMMARY: CRTH2 receptor binding assay ([3H]PGD2 competition on whole transfected cells)
ASSAY_SETUP: competition binding with 0.1 nM [3H]PGD2, whole cells expressing CRTH2, 3 h at 4° C.
pIC50: −log10 of the molar value.
EXPERIMENTAL_ENDPOINT: pIC50

- MOL_SMILES: "C/C(=C\\c1ccccc1)C(=O)Nc1cccc(C(=O)Nc2ccccc2C(=O)O)c1"
  ENDPOINT_VALUE: "5.30 to 6.30"
- MOL_SMILES: "O=C(Nc1ccccc1C(=O)O)c1ccc(Br)c(S(=O)(=O)Nc2ccc(Cl)nc2)c1"
  ENDPOINT_VALUE: "5.30 to 6.30"
- MOL_SMILES: "CCOc1ccc(NS(=O)(=O)c2cc(C(=O)Nc3ccccc3C(=O)O)ccc2C)cc1"
  ENDPOINT_VALUE: "5.30 to 6.30"
- MOL_SMILES: "Cc1ccc(C(=O)Nc2ccccc2C(=O)O)cc1S(=O)(=O)N1CCOCC1"
  ENDPOINT_VALUE: "5.30 to 6.30"
- MOL_SMILES: "Cc1ccc(C(=O)Nc2ccccc2C(=O)O)cc1S(=O)(=O)N1CCCCCC1"
  ENDPOINT_VALUE: "5.30 to 6.30"
- MOL_SMILES: "Cc1ccc(C(=O)Nc2ccccc2C(=O)O)cc1S(=O)(=O)Nc1ccc(I)cc1"
  ENDPOINT_VALUE: "> 6.30"
- MOL_SMILES: "COc1cc(C(=O)Nc2cccc(C(=O)Nc3ccccc3C(=O)O)c2)cc(OC)c1OC"
  ENDPOINT_VALUE: "5.30 to 6.30"
- MOL_SMILES: "O=C(Nc1ccccc1C(=O)O)c1cc(S(=O)(=O)N2CCOCC2)ccc1Cl"
  ENDPOINT_VALUE: "< 5.30"
- MOL_SMILES: "O=C(Nc1ccccc1C(=O)O)c1cccc(S(=O)(=O)N2CCCC2)c1"
  ENDPOINT_VALUE: "< 5.30"
- MOL_SMILES: "O=C(COc1ccc(Cl)cc1)Nc1cc(C(=O)Nc2ccc(I)cc2C(=O)O)ccc1Cl"
  ENDPOINT_VALUE: "5.30 to 6.30"
- MOL_SMILES: "O=C(Nc1cccc(C(=O)Nc2ccccc2C(=O)O)c1)c1ccc(I)cc1"
  ENDPOINT_VALUE: "> 6.30"
- MOL_SMILES: "O=C(Nc1ccccc1C(=O)O)c1cc(S(=O)(=O)N2CCCC2)c(Cl)cc1Cl"
  ENDPOINT_VALUE: "5.30 to 6.30"
- MOL_SMILES: "O=C(Nc1ccc(O)cc1C(=O)O)c1cccc(NC(=O)c2ccco2)c1"
  ENDPOINT_VALUE: "5.30 to 6.30"
- MOL_SMILES: "Cc1ccc(C(=O)Nc2ccccc2C(=O)O)cc1S(=O)(=O)Nc1cccc(Cl)c1"
  ENDPOINT_VALUE: "> 6.30"
- MOL_SMILES: "O=C(CCc1ccccc1)Nc1cccc(C(=O)Nc2ccccc2C(=O)O)c1"
  ENDPOINT_VALUE: "5.30 to 6.30"
- MOL_SMILES: "O=C(Nc1ccc(C(=O)Nc2ccccc2C(=O)O)cc1)c1ccc(Br)cc1"
  ENDPOINT_VALUE: "5.30 to 6.30"
- MOL_SMILES: "CCN(CC)S(=O)(=O)c1cc(C(=O)Nc2ccccc2C(=O)O)ccc1OC"
  ENDPOINT_VALUE: "5.30 to 6.30"
- MOL_SMILES: "O=C(Nc1ccccc1C(=O)O)c1ccc(Br)c(S(=O)(=O)Nc2ccc(OC(F)(F)F)cc2)c1"
  ENDPOINT_VALUE: "> 6.30"
- MOL_SMILES: "Cc1c(S(=O)(=O)Nc2ccc(Br)cc2)csc1C(=O)Nc1ccccc1C(=O)O"
  ENDPOINT_VALUE: "> 6.30"

====

EXPERIMENTAL_TARGET: human CRTH2 receptor (Homo sapiens, UniProt Q9Y5Y4, V204A)
PROTOCOL_SUMMARY: CRTH2 receptor binding assay ([3H]PGD2 competition on whole transfected cells)
ASSAY_SETUP: competition binding with 0.1 nM [3H]PGD2, whole cells expressing CRTH2, 3 h at 4° C.
Consider the following compounds and their measured IC50 readings.
EXPERIMENTAL_ENDPOINT: IC50

- MOL_SMILES: "O=C(Nc1ccccc1C(=O)O)c1cc(S(=O)(=O)N2CCCC2)ccc1Cl"
  EXPERIMENTAL_TARGET: "human CRTH2 receptor (Homo sapiens, UniProt Q9Y5Y4, V204A)"
  ENDPOINT_VALUE: "0.5 to 5 µM"
- MOL_SMILES: "O=C(Nc1ccc(Br)cc1C(=O)O)c1cccc(S(=O)(=O)Nc2ccc(OC(F)(F)F)cc2)c1"
  EXPERIMENTAL_TARGET: "human CRTH2 receptor (Homo sapiens, UniProt Q9Y5Y4, V204A)"
  ENDPOINT_VALUE: "0.5 to 5 µM"
- MOL_SMILES: "Cc1ccc(OCC(=O)Nc2cccc(C(=O)Nc3ccccc3C(=O)O)c2)cc1C"
  EXPERIMENTAL_TARGET: "human CRTH2 receptor (Homo sapiens, UniProt Q9Y5Y4, V204A)"
  ENDPOINT_VALUE: "< 0.5 µM"
- MOL_SMILES: "Cc1c(S(=O)(=O)Nc2ccc(I)cc2)csc1C(=O)Nc1ccccc1C(=O)O"
  EXPERIMENTAL_TARGET: "human CRTH2 receptor (Homo sapiens, UniProt Q9Y5Y4, V204A)"
  ENDPOINT_VALUE: "< 0.5 µM"
- MOL_SMILES: "O=C(Nc1ccc(Br)cc1C(=O)O)c1cccc(S(=O)(=O)Nc2ccc(F)cc2)c1"
  EXPERIMENTAL_TARGET: "human CRTH2 receptor (Homo sapiens, UniProt Q9Y5Y4, V204A)"
  ENDPOINT_VALUE: "< 0.5 µM"

====

Consider the following molecules and their measured IC50 readings.
EXPERIMENTAL_TARGET: human CRTH2 receptor (Homo sapiens, UniProt Q9Y5Y4, V204A)
PROTOCOL_SUMMARY: CRTH2 receptor binding assay ([3H]PGD2 competition on whole transfected cells)
ASSAY_SETUP: competition binding with 0.1 nM [3H]PGD2, whole cells expressing CRTH2, 3 h at 4° C.
EXPERIMENTAL_ENDPOINT: IC50

- MOLECULE: "O=C(Nc1ccccc1C(=O)O)c1ccc(Br)c(S(=O)(=O)Nc2ccc(Br)cc2)c1 [B54]"
  EXPERIMENTAL_TARGET: "human CRTH2 receptor (Homo sapiens, UniProt Q9Y5Y4, V204A)"
  ENDPOINT_VALUE: "< 0.5 µM"
- MOLECULE: "O=C(Nc1ccc(Br)cc1C(=O)O)c1cccc(S(=O)(=O)Nc2ccc(Cl)cc2)c1 [B28]"
  EXPERIMENTAL_TARGET: "human CRTH2 receptor (Homo sapiens, UniProt Q9Y5Y4, V204A)"
  ENDPOINT_VALUE: "< 0.5 µM"
- MOLECULE: "COc1ccc(C(=O)Nc2cccc(C(=O)Nc3ccccc3C(=O)O)c2)cc1 [B11]"
  EXPERIMENTAL_TARGET: "human CRTH2 receptor (Homo sapiens, UniProt Q9Y5Y4, V204A)"
  ENDPOINT_VALUE: "0.5 to 5 µM"
- MOLECULE: "Cc1ccc(NS(=O)(=O)c2cccc(C(=O)Nc3ccccc3C(=O)O)c2)cc1 [B46]"
  EXPERIMENTAL_TARGET: "human CRTH2 receptor (Homo sapiens, UniProt Q9Y5Y4, V204A)"
  ENDPOINT_VALUE: "0.5 to 5 µM"
- MOLECULE: "O=C(Nc1ccc(Br)cc1C(=O)O)c1cccc(S(=O)(=O)Nc2ccc(I)cc2)c1 [B17]"
  EXPERIMENTAL_TARGET: "human CRTH2 receptor (Homo sapiens, UniProt Q9Y5Y4, V204A)"
  ENDPOINT_VALUE: "< 0.5 µM"
- MOLECULE: "Cc1ccc(C(=O)Nc2ccccc2C(=O)O)cc1S(=O)(=O)Nc1ccc(F)cc1 [B63]"
  EXPERIMENTAL_TARGET: "human CRTH2 receptor (Homo sapiens, UniProt Q9Y5Y4, V204A)"
  ENDPOINT_VALUE: "0.5 to 5 µM"
- MOLECULE: "CC(=O)c1ccc(NS(=O)(=O)c2cc(C(=O)Nc3ccccc3C(=O)O)ccc2C)cc1 [B65]"
  EXPERIMENTAL_TARGET: "human CRTH2 receptor (Homo sapiens, UniProt Q9Y5Y4, V204A)"
  ENDPOINT_VALUE: "> 5 µM"
- MOLECULE: "O=C(Nc1ccc(Cl)cc1C(=O)O)c1cccc(S(=O)(=O)Nc2ccc(Cl)cc2)c1 [B30]"
  EXPERIMENTAL_TARGET: "human CRTH2 receptor (Homo sapiens, UniProt Q9Y5Y4, V204A)"
  ENDPOINT_VALUE: "< 0.5 µM"
- MOLECULE: "O=C(CSCc1ccccc1)Nc1cccc(C(=O)Nc2ccccc2C(=O)O)c1 [B42]"
  EXPERIMENTAL_TARGET: "human CRTH2 receptor (Homo sapiens, UniProt Q9Y5Y4, V204A)"
  ENDPOINT_VALUE: "< 0.5 µM"
- MOLECULE: "CCOc1ccc(NS(=O)(=O)c2cccc(C(=O)Nc3ccccc3C(=O)O)c2)cc1 [B61]"
  EXPERIMENTAL_TARGET: "human CRTH2 receptor (Homo sapiens, UniProt Q9Y5Y4, V204A)"
  ENDPOINT_VALUE: "0.5 to 5 µM"
- MOLECULE: "O=C(Nc1ccccc1C(=O)O)c1ccc(Br)c(S(=O)(=O)Nc2cccc(Oc3ccccc3)c2)c1 [B21]"
  EXPERIMENTAL_TARGET: "human CRTH2 receptor (Homo sapiens, UniProt Q9Y5Y4, V204A)"
  ENDPOINT_VALUE: "< 0.5 µM"
- MOLECULE: "Cc1c(S(=O)(=O)Nc2ccc(OC(F)(F)F)cc2)csc1C(=O)Nc1ccccc1C(=O)O [B20]"
  EXPERIMENTAL_TARGET: "human CRTH2 receptor (Homo sapiens, UniProt Q9Y5Y4, V204A)"
  ENDPOINT_VALUE: "< 0.5 µM"
- MOLECULE: "Cc1cccc(NS(=O)(=O)c2ccc(Cl)c(C(=O)Nc3ccccc3C(=O)O)c2)c1 [B57]"
  EXPERIMENTAL_TARGET: "human CRTH2 receptor (Homo sapiens, UniProt Q9Y5Y4, V204A)"
  ENDPOINT_VALUE: "0.5 to 5 µM"
- MOLECULE: "Cc1ccc(C(=O)Nc2ccccc2C(=O)O)cc1S(=O)(=O)Nc1ccc(Br)cc1 [B52]"
  EXPERIMENTAL_TARGET: "human CRTH2 receptor (Homo sapiens, UniProt Q9Y5Y4, V204A)"
  ENDPOINT_VALUE: "< 0.5 µM"
- MOLECULE: "COc1ccc(NS(=O)(=O)c2cccc(C(=O)Nc3ccccc3C(=O)O)c2)cc1 [B48]"
  EXPERIMENTAL_TARGET: "human CRTH2 receptor (Homo sapiens, UniProt Q9Y5Y4, V204A)"
  ENDPOINT_VALUE: "0.5 to 5 µM"
- MOLECULE: "COc1ccccc1NS(=O)(=O)c1cccc(C(=O)Nc2ccccc2C(=O)O)c1 [B60]"
  EXPERIMENTAL_TARGET: "human CRTH2 receptor (Homo sapiens, UniProt Q9Y5Y4, V204A)"
  ENDPOINT_VALUE: "0.5 to 5 µM"
- MOLECULE: "O=C(Nc1ccccc1C(=O)O)c1cccc(S(=O)(=O)Nc2ccc(Br)cc2)c1 [B55]"
  EXPERIMENTAL_TARGET: "human CRTH2 receptor (Homo sapiens, UniProt Q9Y5Y4, V204A)"
  ENDPOINT_VALUE: "< 0.5 µM"
- MOLECULE: "O=C(Nc1ccccc1C(=O)O)c1cc(S(=O)(=O)N2CCCCC2)c(Cl)cc1Cl [B70]"
  EXPERIMENTAL_TARGET: "human CRTH2 receptor (Homo sapiens, UniProt Q9Y5Y4, V204A)"
  ENDPOINT_VALUE: "< 0.5 µM"
